Measured parameter: melting point

Request: Requested read-out: melting point. Entry: `CCCCCCCCCCCCCCCCN1CCN(c2ccc(CCC(=O)O)cc2)CC1`
Result: 218 to 220 °C

Request: Requested read-out: melting point. Entry: CCCC(c1ccc(C(=O)c2ccccc2)cc1OCc1ccc(Br)cc1)n1ccnc1 (centres undefined)
Result: 70 to 72 °C

Request: Requested read-out: melting point. Entry: `COc1cc(-c2nnn[nH]2)ccc1Cc1cn(C)c2ccc(NC(=O)CC3CCCC3)cc12`
Result: 242 to 243 °C

Request: Requested read-out: melting point. Entry: CCc1cnc2c(c1)ON(C(C)(C(N)=O)C(C)C)O2 (centres undefined)
Result: 114 to 117 °C

Request: Requested read-out: melting point. Entry: Cc1nnc2n1-c1ccccc1C(c1ccccc1Cl)OC2C (centres undefined)
Result: 176 to 178 °C

Request: Requested read-out: melting point. Entry: `COc1ccccc1Oc1cccc(CC(=O)O)c1O`
Result: 125 to 126 °C

Request: Requested read-out: melting point. Entry: O=C1N(Cc2cccc(C(F)(F)F)c2)c2ccccc2C12COc1cc3c(cc12)OCCO3 (centres undefined)
Result: 131 to 134 °C

Request: Requested read-out: melting point. Entry: CC(C)(C)[Si](C)(C)OC1CCN(S(=O)(=O)c2ccc(N3CCCCC3)cc2)C1=O (centres undefined)
Result: 111 to 112 °C

Request: Requested read-out: melting point. Entry: `CC(C)c1nc(CO)n(Cc2ccccc2)c1Sc1cc(Cl)cc(Cl)c1`
Result: 121 to 124 °C

* * *

Answer each item with its documented melting point.

Request: Requested read-out: melting point. Entry: `CCOC(=O)c1c(C)nc(-c2ccccc2)nc1-c1cc([N+](=O)[O-])ccc1S(C)(=O)=O`
Result: 150 to 151 °C

Request: Requested read-out: melting point. Entry: `CCCCCS(=O)(=O)NC(=O)/C=C/c1ccc(OCCOC)cc1Cc1ncc(Br)s1`
Result: 88.5 to 89.1 °C

Request: Requested read-out: melting point. Entry: `CSC(=NC#N)NCCSCc1ccc(Nc2ccccc2)nc1`
Result: 180 to 182 °C

Request: Requested read-out: melting point. Entry: CC1(C)Oc2ccsc2C(N2CCCC2=O)C1O (centres undefined)
Result: 154 to 155 °C

Request: Requested read-out: melting point. Entry: `CCOC(=O)C1=C(CN2C(=O)c3ccccc3C2=O)NC(CN2C(=O)c3ccccc3C2=O)=C(C(=O)OCC)C1c1ccccc1Cl`
Result: 162 to 164 °C

Request: Requested read-out: melting point. Entry: `CCOC(=O)c1c(-c2ccccc2)c(Cc2cccc(F)c2C)cn1N`
Result: 87 to 88 °C

Request: Requested read-out: melting point. Entry: `CCOc1cc(-c2cc(C(F)F)n3ncc(C(=O)Nc4cccc(S(=O)(=O)NC(C)(C)CO)c4)c3n2)ccc1C(F)(F)F`
Result: 250 °C

Request: Requested read-out: melting point. Entry: `O=C(O)CCCCc1ccc(NS(=O)(=O)c2ccc(Cl)cc2)cn1`
Result: 145 to 147 °C

Request: Requested read-out: melting point. Entry: `O=C(Nc1ccc(-n2nc(C(F)(F)F)cc2C(F)(F)F)cc1)c1cccs1`
Result: > 230 °C

Request: Requested read-out: melting point. Entry: `NC(=S)/C=C/c1cc([N+](=O)[O-])ccc1Cl`
Result: 236 to 238 °C

Request: Requested read-out: melting point. Entry: `CC(C)n1nc(-c2sc(C(=O)NCc3ccccn3)nc2-c2cccc(F)c2)ccc1=O`
Result: 188 to 190 °C

Request: Requested read-out: melting point. Entry: Nc1cccc2nc3c(nc12)N1CCCCC1CO3 (centres undefined)
Result: 207 to 209 °C

Request: Requested read-out: melting point. Entry: COc1ccc2c(c1)C(Cl)CC1C2C(O)CC2(C)C(O)CCC12 (centres undefined)
Result: 150 to 151 °C

Request: Requested read-out: melting point. Entry: `CCCCCS(=O)(=O)NC(=O)CCc1ccc(OCCOC)cc1OCc1ccc(Cl)cc1Cl`
Result: 107 to 108 °C

Request: Requested read-out: melting point. Entry: `CC(C)(C)OC(=O)Nc1ccc2ccc(S(C)(=O)=O)cc2c1`
Result: 179 to 180 °C

Request: Requested read-out: melting point. Entry: `CCN1C(=O)C(C)(C)c2ccc(C(=O)Nc3ccc(F)cc3)cc21`
Result: 179 to 181 °C

Request: Requested read-out: melting point. Entry: CCCc1nc(C(O)C(C)(C)C)c(C#N)n1Cc1ccc(-c2ccccc2-c2nnnn2C(c2ccccc2)(c2ccccc2)c2ccccc2)cc1 (centres undefined)
Result: 115 to 117 °C

Request: Requested read-out: melting point. Entry: `COc1ccc(S(=O)(=O)N(C)C)c(N)c1`
Result: 59 to 64 °C

Request: Requested read-out: melting point. Entry: `O=S(=O)(Nc1ncnc(Cl)c1-c1ccc(OCc2ccccc2)cc1)c1ccc(Cl)cc1`
Result: 234 to 236 °C
